assay: TOX21_p53_BLA_p3_viability: Viability Assessment in the Tox21 HCT-116 p53 Agonism Beta-lactamase Assay, Phase 3 (AID 2283593);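 note: cells exposed to compound for 16 h before reading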
Records with an inconclusive call do not appear. The source made the active and inactive calls. Rule for the calls: active = hit-call score of the fitted dose curve at least 0.9, where 1 is the maximum; inconclusive = response in the unintended direction; inactive = score below 0.9.
Response enum: active, inactive

COMPOUND | ASSIGNED_LABEL
Nc1ccc(O)c(C(=O)O)c1 | inactive

## Input Short answer needed: outcome of this test for C=CC(C)(CCC=C(C)C)OC(C)=O (configuration not stated) ?
## Output inactive

## Input Test call for this compound, please: CC(C)(O)C(=O)c1ccccc1
## Output inactive

## Input For C=CC(=O)OCC(CO)(COCC(COC(=O)C=C)(COC(=O)C=C)COC(=O)C=C)COC(=O)C=C , what call appears in the results of this test?
## Output active

## Input Tell me the recorded outcome of this test for O=c1cc(-c2ccccc2)oc2ccc3ccccc3c12 .
## Output inactive

## Input Given Cc1cc(C(C)(C)C)c(O)c(C(C)(C)C)c1 , state the outcome it received in this test.
## Output inactive

## Input Given O=C(CCCN1CCC(O)(c2ccc(Cl)cc2)CC1)c1ccc(F)cc1 , state the outcome it received in this test.
## Output inactive

----------
target: Peroxisome proliferator-activated receptor gamma (Homo sapiens) (UniProt P37231); experiment: ATG_PPARg_TRANS: Attagene TRANS-FACTORIAL HepG2 Assay for human Peroxisome Proliferator-activated Receptor-gamma (PPARg) (AID 2283007)
Sequence (P37231 whole entry, looked up): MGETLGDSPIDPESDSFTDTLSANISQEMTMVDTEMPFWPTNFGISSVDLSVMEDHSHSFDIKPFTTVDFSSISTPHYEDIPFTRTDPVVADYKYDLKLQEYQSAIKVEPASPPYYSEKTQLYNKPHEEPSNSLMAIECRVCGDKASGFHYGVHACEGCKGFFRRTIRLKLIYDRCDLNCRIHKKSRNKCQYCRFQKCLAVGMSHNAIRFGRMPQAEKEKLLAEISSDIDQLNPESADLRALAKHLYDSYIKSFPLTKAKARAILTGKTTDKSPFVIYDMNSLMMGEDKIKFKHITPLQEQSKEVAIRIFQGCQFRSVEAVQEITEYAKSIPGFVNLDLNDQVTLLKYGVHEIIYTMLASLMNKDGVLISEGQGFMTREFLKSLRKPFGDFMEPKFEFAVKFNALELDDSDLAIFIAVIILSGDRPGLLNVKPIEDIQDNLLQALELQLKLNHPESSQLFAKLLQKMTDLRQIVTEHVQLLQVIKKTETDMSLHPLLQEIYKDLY
Results filed as inconclusive are left out. Active and inactive are the calls of the source. How the source made its calls: active means hit-call score of the fitted dose curve at least 0.9, where 1 is the maximum; inconclusive means response in the unintended direction; inactive means score below 0.9.
// classify into active, inactive

Solved entries (count: 8):
MOLECULE | ASSIGNED_LABEL
CCOC(C)=O | inactive
C=COC(=O)C(C)(C)CCCCCC | inactive
CCCCCCCCCCCC[N+](C)(C)CCCCCCCCCCCC | inactive
CS(=O)(=O)c1ccc([C@@H](CC2CCCC2)C(=O)Nc2cnccn2)cc1Cl | inactive
CC(O)COc1ccccc1 (stereo not drawn) | inactive
Cc1cc(=O)oc2cc(O)ccc12 | inactive
COC(=O)C(F)(F)C(F)(F)C(F)(F)F | inactive
COc1ccccc1NC(=O)c1cc2ccccc2cc1O | active

## Input Entry FC(F)(F)N1C(F)(F)C(F)(F)OC(F)(F)C1(F)F : call = ?
## Output inactive

## Input Which outcome did this test record for the molecule O=C1OC(=O)C(F)(F)C1(F)F ?
## Output inactive

## Input Short answer needed: outcome of this test for CCN(CCC#N)c1ccccc1 ?
## Output inactive

## Input What call does the record list for FC(F)=C(F)C(F)(F)C(F)(F)C(F)(F)C(F)F ?
## Output inactive

## Input Per the assay record, what outcome was assigned to OCC1CCC(CO)CC1 (stereo not drawn) ?
## Output inactive

## Input Hi team, can someone confirm the assay call for c1cnc2c(c1)ccc1cccnc12 ?
## Output inactive

## Input Fill in: this test's call for FC(F)(F)C(F)(F)C(F)(F)Br is ___
## Output inactive

## Input # outcome recorded in this test, key = Cc1cc(C(=C2C=CC(=Nc3ccc(S(=O)(=O)O)cc3)C=C2)c2ccc(Nc3ccc(S(=O)(=O)O)cc3)cc2)cc(S(=O)(=O)O)c1N
## Output inactive

## Input Hi, do you know how CCCCCCCCCCCCOC(=O)c1cc(O)c(O)c(O)c1 came out in this test?
## Output active
